assay_notes: Pharmacokinetics accompanying the efficacy in the MCT-induced rat model of pulmonary hypertension
Format: in vivo, SD rats
particulars: Sprague-Dawley, rat, plasma, po; 3 mg/kg gavage, day 21, mean, n = 3
measured_quantity: Tmax

Entry `COCCNS(=O)(=O)Nc1ncnc(OCCOc2ncc(Br)cn2)c1-c1ccc2c(c1)OCO2` — recorded Tmax = 1 h

----------
assay_notes: Pharmacokinetics accompanying the efficacy in the MCT-induced rat model of pulmonary hypertension
Format: in vivo, SD rats
particulars: Sprague-Dawley, rat, plasma, po; 1 mg/kg gavage, day 21, mean, n = 3
measured_quantity: Cmax (nM)
Answers are plain numbers, in nM.

Entry `COCCNS(=O)(=O)Nc1ncnc(OCCOc2ncc(Br)cn2)c1-c1ccc2c(c1)OCO2` — recorded Cmax = 345
